- System tested: T1, soluble heterodimeric hCD3ε/δ.mFc protein (human)
- T1 construct: also called soluble human CD3; soluble heterodimeric CD3 protein
- T1 chain 1: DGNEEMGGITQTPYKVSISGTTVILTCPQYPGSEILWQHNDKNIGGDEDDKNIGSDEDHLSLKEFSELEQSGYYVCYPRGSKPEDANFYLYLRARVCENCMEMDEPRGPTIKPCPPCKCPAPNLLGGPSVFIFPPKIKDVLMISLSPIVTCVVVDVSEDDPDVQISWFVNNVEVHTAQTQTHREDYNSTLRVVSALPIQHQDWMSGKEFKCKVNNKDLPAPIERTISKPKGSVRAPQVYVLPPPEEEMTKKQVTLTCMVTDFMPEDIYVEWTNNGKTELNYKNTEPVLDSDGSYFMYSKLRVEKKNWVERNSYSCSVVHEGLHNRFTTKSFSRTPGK
- T1 chain 2: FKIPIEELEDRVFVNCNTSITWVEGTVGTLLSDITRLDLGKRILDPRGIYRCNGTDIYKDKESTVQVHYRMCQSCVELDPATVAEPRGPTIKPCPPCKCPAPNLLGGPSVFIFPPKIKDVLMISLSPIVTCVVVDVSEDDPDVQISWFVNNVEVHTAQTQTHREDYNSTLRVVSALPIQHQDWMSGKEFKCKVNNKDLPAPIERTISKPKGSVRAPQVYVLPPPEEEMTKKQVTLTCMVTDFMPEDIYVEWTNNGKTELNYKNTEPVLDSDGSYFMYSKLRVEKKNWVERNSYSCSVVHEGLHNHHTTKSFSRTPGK
- Assay overview: SPR MASS-1, 37 C, antigen-capture (hCD3ε/δ.mFc captured), antibody injected
Task for the reader: assign each of the following binders its reported Kd.
Numbers only, in nM.

| Binder | Value unit | Kd |
| --- | --- | --- |
| BSPSMA/CD3-900 (bispecific antibody, IgG4, V domains shown, modified (chimeric) IgG4 Fc domain; also called PSMA-VH-11810 x CD3-VH-G9) VH 1: QVQLVESGGGVVQPGRSLRLSCAASGFTFSSYGMHWVRQAPGKGLEWVAVISYAGNNKYYADSVKGRFTVSRDNSKKTLYLQMNSLRSEDTAVYYCAKDSYYDFLTDPDVLDIWGQGTMVTVSS VH 2: EVQLVESGGGLVQPGRSLRLSCAASGFTFDDYSMHWVRQAPGKGLEWVSGISWNSGSKGYADSVKGRFTISRDNAKNSLYLQMNSLRAEDTALYYCAKDGSGYGKFYHYGLDVWGQGTTVTVSS VL: DIQMTQSPSSLSASVGDSVTITCRASQSINNYLNWYQQKPGKAPKLLIYTASSLLSGVPSRFSGSGSGTDFTLTISGLHPEDFATYFCQQSFSTPPITFGQGTRLDIK | nM | 113 |

Now look at this entry.
Record BSPSMA/CD3-1700 (bispecific antibody, IgG4, V domains shown, modified (chimeric) IgG4 Fc domain; also called PSMA-VH-11810 x CD3-VH-G17) VH 1: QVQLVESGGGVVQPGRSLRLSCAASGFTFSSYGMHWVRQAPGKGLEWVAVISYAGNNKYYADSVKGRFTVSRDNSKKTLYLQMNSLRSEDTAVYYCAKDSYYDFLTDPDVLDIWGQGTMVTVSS VH 2: EVQLVESGGGLVQPGRSLRLSCAASGFTFDDYSMHWVRQAPGKGLEWVSGISWNSGSKGYADSVKGRFTISRDNAKNSLYLQMNSLRAEDTALYYCAKYGSGYGKFYYYGMDVWGQGTTVTVSS VL: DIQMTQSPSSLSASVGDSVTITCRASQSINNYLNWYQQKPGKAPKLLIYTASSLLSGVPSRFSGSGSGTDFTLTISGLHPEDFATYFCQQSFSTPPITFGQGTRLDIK , field Kd: 65.2
